Test: Viability qHTS for spleen associated tyrosine kinase inhibitor (SYKi) naive MV4-11 cells (AID 1963823); note: nearly all actives have a fitted effect of over 40% in size
Conditions: MV4-11 AML viability, CellTiter-Glo luminescence, 72 h; series mostly up to 45 µM
Results filed as inconclusive are left out. Activity calls are given as the source filed them. Calls come from the whole dose curve; as a rule, active = well fitted cell-killing curve with a large enough effect; inconclusive = small, poorly fitted or top-dose-only effect, or effect the other way; inactive = no such curve, though single readings can be large or run the other way.
Hi there, use one of these labels in your reply, thanks! active, inactive

Here are 4 compounds together with their reported answers.
>>> df
                                   compound  answer_label
0  COc1c(O[C@@H]2O[C@H](CO)[C@@H](O)[C@H](O)[C@H]2O)c(CCC(=O)O)cc2ccoc12      inactive
1           COc1cc(C(=O)N2CCOCC2)cc(OC)c1OC      inactive
2  C=C1CCC2[C@](C)(CO)C(O)CC[C@]2(C)C1C/C=C1/C(=O)OCC1O (stereo not given in full)        active
3  COC(=O)[C@H](CCCN=C(N)N)NS(=O)(=O)c1ccc(C)cc1      inactive

Could you now look at the following compound, please?
Which outcome was entered for the compound C=C1CC2OC(=O)C(=C)C2C(OC(=O)/C(C)=C\C)CC2(C)OC1=CC2=O (stereo not given) in this test?
active

Numbers sourced from PubChem BioAssay (NCATS).
